Reference for the values: patent EP0406992A2

Please provide measured Näherungsbereich i.v. LD₅₀ männl. Maus 16-20 g for the entries that follow.
- Tested on: männl. Maus 16-20 g
- condition-summary: male mouse 16-20 g, approximate range

Lab note: measured Näherungsbereich i.v. LD₅₀ männl. Maus 16-20 g of CN(C(=O)CO)c1c(I)c(C(N)=O)c(I)c(C(=O)NC(CO)C(O)CO)c1I (stereo not shown) was 16-17,5 g I/kg

Lab note: measured Näherungsbereich i.v. LD₅₀ männl. Maus 16-20 g of CC(=O)N(CC(O)CO)c1c(I)c(C(=O)NCC(O)CO)c(I)c(C(=O)NCC(O)CO)c1I (stereo not shown) [Iohexol] was 16-17 g I/kg

Lab note: measured Näherungsbereich i.v. LD₅₀ männl. Maus 16-20 g of "C[C@H](O)C(=O)Nc1c(I)c(C(=O)NC(CO)CO)c(I)c(C(=O)NC(CO)CO)c1I" was 16-18 g I/kg

Lab note: measured Näherungsbereich i.v. LD₅₀ männl. Maus 16-20 g of COCC(=O)Nc1c(I)c(C(=O)NCC(O)CO)c(I)c(C(=O)N(C)CC(O)CO)c1I (stereo not shown) was 14-16 g I/kg

Lab note: measured Näherungsbereich i.v. LD₅₀ männl. Maus 16-20 g of CC(=O)N(CCO)c1c(I)c(C(N)=O)c(I)c(C(=O)NC(CO)C(O)CO)c1I (stereo not shown) was 15,5-16,5 g I/kg

Lab note: measured Näherungsbereich i.v. LD₅₀ männl. Maus 16-20 g of CC(=O)N(CC(O)CO)c1c(I)c(C(N)=O)c(I)c(C(=O)NCC(O)CO)c1I (stereo not shown) was 14-16 g I/kg

Lab note: measured Näherungsbereich i.v. LD₅₀ männl. Maus 16-20 g of CC(=O)N(CC(O)CO)c1c(I)c(C(=O)NCCO)c(I)c(C(=O)NCC(O)CO)c1I (stereo not shown) [Ioxilan, reference compound] was 16-18 g I/kg

----------
Please provide measured Osmolalität von 300 mg I/ml Lösungen pharmazeutisch formul. Lösung for the entries that follow.
- assay-remarks: Osmolality of contrast agent solutions
- Type: physicochemical
- condition-summary: 300 mg I/ml, pharmaceutically formulated solution
Quick reminder: number only, in mOsm, skip the unit.

Lab note: measured Osmolalität von 300 mg I/ml Lösungen pharmazeutisch formul. Lösung of CC(=O)N(CC(O)CO)c1c(I)c(C(=O)NCCO)c(I)c(C(=O)NCC(O)CO)c1I (stereo not drawn) [Ioxilan, reference compound] was 588

Lab note: measured Osmolalität von 300 mg I/ml Lösungen pharmazeutisch formul. Lösung of CN(C(=O)CO)c1c(I)c(C(N)=O)c(I)c(C(=O)NC(CO)C(O)CO)c1I (stereo not drawn) [Verbindung 41] was 322

Lab note: measured Osmolalität von 300 mg I/ml Lösungen pharmazeutisch formul. Lösung of CC(=O)N(CC(O)CO)c1c(I)c(C(N)=O)c(I)c(C(=O)NCC(O)CO)c1I (stereo not drawn) [Verbindung 19] was 390

Lab note: measured Osmolalität von 300 mg I/ml Lösungen pharmazeutisch formul. Lösung of C[C@H](O)C(=O)Nc1c(I)c(C(=O)NC(CO)CO)c(I)c(C(=O)NC(CO)CO)c1I [Iopamidol] was 704

Lab note: measured Osmolalität von 300 mg I/ml Lösungen pharmazeutisch formul. Lösung of CC(=O)N(CCO)c1c(I)c(C(N)=O)c(I)c(C(=O)NC(CO)C(O)CO)c1I (stereo not drawn) [Verbindung 11] was 326

Lab note: measured Osmolalität von 300 mg I/ml Lösungen pharmazeutisch formul. Lösung of COCC(=O)Nc1c(I)c(C(=O)NCC(O)CO)c(I)c(C(=O)N(C)CC(O)CO)c1I (stereo not drawn) [Iopromid] was 630

----------
- assay-remarks: Viscosity of contrast agent solutions at 37 °C
- Type: physicochemical
- condition-summary: 300 mg I/ml, 37 °C, pharmaceutically formulated solution; determined in applicant's laboratory
Please provide measured Viskosität von 300 mg I/ml bei 37 °C for the entries that follow.

Lab note: measured Viskosität von 300 mg I/ml bei 37 °C of CN(C(=O)CO)c1c(I)c(C(N)=O)c(I)c(C(=O)NC(CO)C(O)CO)c1I (stereo not shown) [Verbindung 41] was 3,5 cps

Lab note: measured Viskosität von 300 mg I/ml bei 37 °C of CC(=O)N(CC(O)CO)c1c(I)c(C(N)=O)c(I)c(C(=O)NCC(O)CO)c1I (stereo not shown) [Verbindung 19] was 4,1 cps

Lab note: measured Viskosität von 300 mg I/ml bei 37 °C of CC(=O)N(CCO)c1c(I)c(C(N)=O)c(I)c(C(=O)NC(CO)C(O)CO)c1I (stereo not shown) [Verbindung 11] was 4,2 cps

Lab note: measured Viskosität von 300 mg I/ml bei 37 °C of CC(=O)N(CC(O)CO)c1c(I)c(C(=O)NCCO)c(I)c(C(=O)NCC(O)CO)c1I (stereo not shown) [Ioxilan, reference compound] was 4,7 cps

----------
- assay-remarks: Osmolality of contrast agent solutions
- Assay type: physicochemical
- condition-summary: 300 mg I/ml, aqueous solution
Kind request: treat 400 mOsm as inclusive, so Osmolalität von 300 mg I/ml Lösungen wäßrige Lösung at 400 mOsm or higher is met, anything lower is not met.

Prompt: Reported Osmolalität von 300 mg I/ml Lösungen wäßrige Lösung at or above 400 mOsm? CC(=O)N(CCO)c1c(I)c(C(N)=O)c(I)c(C(=O)NC(CO)C(O)CO)c1I (stereo not drawn) [Verbindung 11]
Completion: not met

Prompt: Reported Osmolalität von 300 mg I/ml Lösungen wäßrige Lösung at or above 400 mOsm? CN(C(=O)CO)c1c(I)c(C(N)=O)c(I)c(C(=O)NC(CO)C(O)CO)c1I (stereo not drawn) [Verbindung 41]
Completion: not met

Prompt: Reported Osmolalität von 300 mg I/ml Lösungen wäßrige Lösung at or above 400 mOsm? COCC(=O)Nc1c(I)c(C(=O)NCC(O)CO)c(I)c(C(=O)N(C)CC(O)CO)c1I (stereo not drawn) [Iopromid]
Completion: met

Prompt: Reported Osmolalität von 300 mg I/ml Lösungen wäßrige Lösung at or above 400 mOsm? C[C@H](O)C(=O)Nc1c(I)c(C(=O)NC(CO)CO)c(I)c(C(=O)NC(CO)CO)c1I [Iopamidol]
Completion: met

Prompt: Reported Osmolalität von 300 mg I/ml Lösungen wäßrige Lösung at or above 400 mOsm? CC(=O)N(CC(O)CO)c1c(I)c(C(N)=O)c(I)c(C(=O)NCC(O)CO)c1I (stereo not drawn) [Verbindung 19]
Completion: not met

Prompt: Reported Osmolalität von 300 mg I/ml Lösungen wäßrige Lösung at or above 400 mOsm? CC(=O)N(CC(O)CO)c1c(I)c(C(=O)NCCO)c(I)c(C(=O)NCC(O)CO)c1I (stereo not drawn) [Ioxilan, reference compound]
Completion: met
